Assay: physchem
Settings: 1-octanol/aqueous buffer, pH 7.4
measurement label: logD

Solved entries:
compound="C[C@@H]1Cc2c([nH]c3ccccc23)[C@@H](c2c(F)cc(OCCNCCCF)cc2F)N1CC(C)(F)CO (single isomer, unassigned)" observed_result=2.6
compound=COc1cc(NCCNCCCF)ncc1[C@@H]1c2[nH]c3ccccc3c2C[C@@H](C)N1CC(F)F observed_result=2.5
compound=COc1cc(NCCNCCCF)ncc1[C@@H]1c2[nH]c3ccccc3c2C[C@@H](C)N1CC(C)(F)F observed_result=3.1
compound=COc1cc(NCCNCCCF)ccc1[C@@H]1c2[nH]c3ccccc3c2C[C@@H](C)N1CC(F)(F)CO observed_result=2.9

A: COCC(C)(F)CN1[C@H](c2c(F)cc(OCCNCCCF)cc2F)c2[nH]c3ccccc3c2C[C@H]1C (stereo partly shown)
B: C[C@@H]1Cc2c([nH]c3ccccc23)[C@@H](c2ccc(OCCNCCCF)cn2)N1CC1(F)COC1
[Q] Of the two listed items, A and B , which carries the larger logD figure? // output: label of the selected item
[A] A
(A: 3.9, B: 2.1)
